- protocol: Plasma protein binding in human assessed as bound fraction
- Format: ADME, cell-free
Recorded measurements of PPB, one per entry
Could you give me the number in %? Just the number is fine.

Below, 2 molecules whose answers are already recorded.
>  <smiles-str>
O=C(O)c1cc(-c2ccc([C@@H]3C[C@@H]4C[C@H]3NC4=O)cc2)c2ccc(-c3ccc(C(F)(F)F)cc3)cc2c1

>  <result-units>
%

>  <PPB>
98.89

$$$$
>  <smiles-str>
CN(C)C(=O)COC(=O)c1cc(-c2ccc([C@@H]3C[C@@H]4C[C@H]3NC4=O)cc2)c2ccc(-c3ccc(C(F)(F)F)cc3)cc2c1

>  <result-units>
%

>  <PPB>
99.79

$$$$

Give a short answer stating reported PPB for "O=C(O)c1cc(-c2ccc([C@H]3C[C@H]4C[C@@H]3CN4)cc2)c2ccc(-c3ccc(C(F)(F)F)cc3)cc2c1" .
87.98

Using the record for "CN(C)C(=O)COC(=O)c1cc(-c2ccc([C@H]3C[C@H]4C[C@@H]3CN4)cc2)c2ccc(-c3ccc(C(F)(F)F)cc3)cc2c1" , state its measured PPB.
99.7

----------
- protocol: Aqueous solubility of the compound at pH 4
- condition-notes: buffer
Class assignment keyed on solubility, ranges class 1 = under 0.4 µg/mL, class 2 = from 0.4 µg/mL up to 2 µg/mL, class 3 = 2 µg/mL and over

Please let me know in which category the item O=C(O)c1cc(-c2ccc(C3(O)[C@H]4CC[C@H]3CNC4)cc2)c2ccc(-c3ccc(C(F)(F)F)cc3)cc2c1 (stereo not given in full) belongs.
class 3

----------
- protocol: Distribution coefficient, logD of compound at pH 7.4 by HPLC analysis
- Format: physicochemical
- condition-notes: octanol/water, read-out: logD
measurement-name: logD

Look over these answered cases.
>  <compound>
O=C(O)c1cc(-c2ccc([C@@H]3C[C@@H]4C[C@H]3C(=O)N4)cc2)c2ccc(-c3ccc(C(F)(F)F)cc3)cc2c1

>  <logD>
0.49

$$$$
>  <compound>
O=C(O)c1cc(-c2ccc(C3(O)[C@H]4CC[C@H]3CNC4)cc2)c2ccc(-c3ccc(C(F)(F)F)cc3)cc2c1 (stereo not given in full)

>  <logD>
1.2

$$$$
>  <compound>
O=C(O)c1cc(-c2ccc([C@H]3CCN[C@@H]4C[C@H]34)cc2)c2ccc(-c3ccc(C(F)(F)F)cc3)cc2c1 (relative stereo)

>  <logD>
2.6

$$$$
>  <compound>
O=C(O)c1cc(-c2ccc([C@]3(O)C[C@H]4CC[C@@H]3CN4)cc2)c2ccc(-c3ccc(C(F)(F)F)cc3)cc2c1 (racemic)

>  <logD>
0.74

$$$$
>  <compound>
CCOC(=O)N1C[C@H]2C[C@@H]1C[C@@H]2c1ccc(-c2cc(C(=O)OCC(=O)N(C)C)cc3cc(-c4ccc(C(F)(F)F)cc4)ccc23)cc1

>  <logD>
6

$$$$

# return recorded logD for input O=C(O)c1cc(-c2ccc(C3(O)[C@H]4CC[C@H]3CN(Cc3ccccc3)C4)cc2)c2ccc(-c3ccc(C(F)(F)F)cc3)cc2c1 (stereo not given in full)
3.3

Annotate the compound "O=C(O)c1cc(-c2ccc(C34CCN(CC3)CC4)cc2)c2ccc(-c3ccc(C(F)(F)F)cc3)cc2c1" with its measured logD.
4.2

Write down logD measured for item O=C(O)c1cc(-c2ccc([C@@H]3CCN[C@@H]4C[C@@H]43)cc2)c2ccc(-c3ccc(C(F)(F)F)cc3)cc2c1 (racemic)
1.8

Give logD for the following compound: O=C(O)c1cc(-c2ccc(C34CCNCC3C4)cc2)c2ccc(-c3ccc(C(F)(F)F)cc3)cc2c1 (racemic)
2.4

Look up and state reported logD for O=C(O)c1cc(-c2ccc(C3CC4CCC(C3)N4)cc2)c2ccc(-c3ccc(C(F)(F)F)cc3)cc2c1 (stereo not given)
2.3
